tested on: OVCAR-8 ovarian; experiment: NCI tumour cell line growth inhibition, 48 h
Where a SMILES comes first, the peptide text is derived from it. [ ]: non-standard residue; d: D form. The star is where a group is joined. ξ: configuration not given here. NMeF = CN[C@@H](Cc1ccccc1)C(=O)O; NMeV = CN[C@H](C(=O)O)C(C)C; ξNMeN = CNC(CC(N)=O)C(=O)O; NMeA = CN[C@@H](C)C(=O)O; ξNMeV = CNC(C(=O)O)C(C)C; Boc = CC(C)(C)OC(=O)*
Quantity: TGI

CCC12C=CCN3CCC4(c5cc(C6(C(=O)OC)CCCCCc7c6[nH]c6ccccc76)c(OC)cc5N(C)C4C(O)(C(=O)OC)C1OC(C)=O)C32 (configuration not stated); 17.2 µM
COC(=O)[C@H](C)N(C)C(=O)C(CC(N)=O)N(C)C(=O)[C@H](Cc1ccccc1)N(C)C(=O)[C@@H]1CCCN1C(=O)[C@H](C(C)C)N(C)C(=O)C(C(C)C)N(C)C(=O)[C@@H](NC(=O)OC(C)(C)C)C(C)C (some centres not stated) (Boc-V[ξNMeV][NMeV]P[NMeF][ξNMeN][NMeA]-OMe); > 75 µM
CCOP(=O)(O)CC1OC(CO)C(O)C1O (configuration not stated); > 100 µM
COC(=O)/C=C\[C@H]1[C@H](C)N1S(=O)(=O)c1ccc(C)cc1 (some centres not stated); > 100 µM
O=c1ncc(I)cn1C1CC(O)C(CO)O1 (configuration not stated); > 3250 µM

Provide only the value of recorded TGI for O=C(Nc1ccc(Cl)cc1)Nc1ccc(Cl)c(C(F)(F)F)c1
18.8 µM

Provide only the value of recorded TGI for CCC(N)(C(=O)O)C(C)C (configuration not stated)
> 100 µM

Provide only the value of recorded TGI for CC(=O)OC12c3ccccc3C1CCCC21OCCCO1 (configuration not stated)
> 100 µM
